Give measured solubility kinetic for each item. Keep answers brief.
Test: Kinetic Solubility
Type: physicochemical
Settings: aqueous buffer, kinetic from dmso stock; pH = 7; 0.2 to 100 μM; BD Gentest Solubility Scanner; read-out: Kinetic Solubility at pH = 7
Give bare numbers, in µM.

## Input Complete the entry with solubility kinetic for `Cc1c(C(=O)Nc2ccc(F)c(F)c2)c2n(c1C(=O)C(=O)NC1(c3cnn[nH]3)CC(F)(F)C1)C[C@@H]1C[C@H]21`
## Output 57.6

## Input Give reported solubility kinetic value for `CNC(=O)C1(NC(=O)C(=O)c2c(C)c(C(=O)Nc3cc(F)c(F)c(F)c3)c3n2CCC3)CC(F)(F)C1`
## Output 29.6

## Input Please give measured solubility kinetic of the following entry: `Cc1c(C(=O)Nc2ccc(F)c(F)c2)c2n(c1C(=O)C(=O)NC1(C(N)=O)CC(F)(F)C1)CCC2`
## Output 49.8

## Input Return reported solubility kinetic. Input molecule: `CNC(=O)C1(NC(=O)C(=O)c2c(C)c(C(=O)Nc3ccc(F)c(F)c3)c3n2[C@@H]2C[C@@H]2C3)CC(F)(F)C1`
## Output 92.3

## Input Please list solubility kinetic recorded for the molecule `Cc1c(C(=O)Nc2ccc(F)c(C#N)c2)c2n(c1C(=O)C(=O)NC1(c3nncs3)CC(F)(F)C1)CCC2`
## Output 7.4

// input: 5 molecules below; output: solubility kinetic for each
1. Cc1c(C(=O)Nc2ccc(F)c(F)c2)c2n(c1C(=O)C(=O)NC1(c3c[nH]nn3)CC1)CCC2
2. Cc1c(C(=O)Nc2ccc(F)c(F)c2)c2n(c1C(=O)C(=O)NC1(c3nncs3)CC1)CCC2
3. Cc1c(C(=O)Nc2ccc(F)cc2)c2n(c1C(=O)C(=O)NC1(c3cnn[nH]3)CC(F)(F)C1)CCC2
4. CNC(=O)C1(NC(=O)C(=O)c2c(C)c(C(=O)Nc3ccc(F)c(F)c3)c3n2CCC3)CC(F)(F)C1
5. Cc1c(C(=O)Nc2ccc(F)c(Cl)c2)c2n(c1C(=O)C(=O)NC1(c3cnn[nH]3)CC(F)(F)C1)CCC2

## Output
1. 2.9
2. 72.8
3. 77.8
4. 88.5
5. 2.8

Provide solubility kinetic values for the following items, in order.
1. Cc1c(C(=O)Nc2ccc(F)cc2)c2n(c1C(=O)C(=O)NC1(c3nncs3)CC1)CCC2
2. Cc1c(C(=O)Nc2cc(F)c(F)c(F)c2)c2n(c1C(=O)C(=O)NC1(c3nncs3)CC(F)(F)C1)CCC2
3. Cc1c(C(=O)Nc2ccc(F)c(F)c2)c2n(c1C(=O)C(=O)NC1(c3cnn[nH]3)CC(F)(F)C1)C[C@H]1C[C@@H]21
4. Cc1c(C(=O)Nc2ccc(F)c(C(F)F)c2)c2n(c1C(=O)C(=O)NC1(c3c[nH]nn3)CC1)CCC2
5. CNC(=O)C1(NC(=O)C(=O)c2c(C)c(C(=O)Nc3ccc(F)c(F)c3)c3n2[C@H]2C[C@H]2C3)CC(F)(F)C1
6. Cc1c(C(=O)Nc2ccc(F)c(F)c2)c2n(c1C(=O)C(=O)NC1(c3cn(C)nn3)CC(F)(F)C1)CCC2
7. CNC(=O)C1(NC(=O)C(=O)c2c(C)c(C(=O)Nc3ccc(F)c(C#N)c3)c3n2CCC3)CC(F)(F)C1

## Output
13
1.7
65
2.7
87.1
44.8
25.3

Recorded values, source patent US10836769B2.
